Molecular target: T1, monkey MSLN full-length protein (NCBI: XP_028696439.1) expressed on HEK293T-monkey MSLN cells (monkey)
T1 construct: Whole encoded precursor
T1 chain: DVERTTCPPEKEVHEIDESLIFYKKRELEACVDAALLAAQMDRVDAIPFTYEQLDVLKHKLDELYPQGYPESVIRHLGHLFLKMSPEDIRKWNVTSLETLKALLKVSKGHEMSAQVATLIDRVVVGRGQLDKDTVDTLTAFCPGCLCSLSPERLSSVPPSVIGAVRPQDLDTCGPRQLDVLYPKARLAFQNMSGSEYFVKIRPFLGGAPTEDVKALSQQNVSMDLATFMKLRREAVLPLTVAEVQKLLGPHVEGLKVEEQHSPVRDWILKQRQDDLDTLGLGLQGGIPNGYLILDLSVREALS
Test: FACS on HEK293T-monkey MSLN cells;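 also: flow cytometry binding of chimeric antibodies to the cells, with a 2 h incubation on ice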
Measured Maximum mean fluorescence intensity values are reported for all entries that follow.

# binder, Maximum mean fluorescence intensity
data = [
    ("S009-F7.53.2 (antibody, human IgG1, kappa, V domains shown, human-murine chimeric antibody, human IgG1/kappa constant regions) VH: EVQLQQSGPELVKPGASVKIPCKTSGYTFTDYNMDWVKQSHGKSLEWIGDINPNTDGAIYNQKFQNKATLTVDKSSSTAYMELRSLTSEDTAVYYCTRRKLGRKFFDYWGQGTTLTVSS VL: QIVLTQSPAIMSASPGEQVTMTCSASSSVGYMNWYQQKPGSSPRLLIYDTSNLASGVPVHFSGSGSGTSYSLTISRMEAAFAATYYCQQWYVYPYTFGGGTKLEIKR", 47400),
    ("S009-F7.12.13 (antibody, human IgG1, kappa, V domains shown, human-murine chimeric antibody, human IgG1/kappa constant regions) VH: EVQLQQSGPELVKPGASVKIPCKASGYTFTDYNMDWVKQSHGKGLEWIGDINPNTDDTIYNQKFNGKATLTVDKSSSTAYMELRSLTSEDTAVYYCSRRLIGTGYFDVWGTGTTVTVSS VL: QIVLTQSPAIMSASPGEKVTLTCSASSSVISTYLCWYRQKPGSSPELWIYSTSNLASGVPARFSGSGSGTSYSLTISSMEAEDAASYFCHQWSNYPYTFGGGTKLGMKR", 7630),
    ("S009-F7.69.8 (antibody, human IgG1, kappa, V domains shown, human-murine chimeric antibody, human IgG1/kappa constant regions) VH: EVHLQQSGPELVKPGASVRIPCKASGYTFTDYNMDWVKQSHGKSLEWIGDINPDNGGTIYTQKFKGKATLTVDKSSSTAYMELRSLTSEDTAVYYCARRLHYYGSSGLDYWGQGTTLTVSS VL: DIQMTQSPASLSAYVGETVTITCRASGNIHNYLAWYQQKQGKSPQLLVYNAKTLADGVPSRFSGSGSGTQYSLKINSLQPEDFGSYYCQHFWSTVWTFGGGTKLEIKR", 9230),
    ("S009-F7.21.16 (antibody, human IgG1, kappa, V domains shown, human-murine chimeric antibody, human IgG1/kappa constant regions) VH: QVQLQQPGTELVKPGASVKLSCKASGYTFTTFWMHWVKQRPGQGLEWIGGVNPTNGGTNYNEKFRTKATLTVDKSSTTADMQLSSLTSEDSAVYYCAPHYISSRPGFAYWGQGTLVTVSG VL: DIVMTQSQKFMSTSGGDRVSVTCKASQNVGTNVAWYQQKPGQSPKALIYSASYRYSGVPDRFTGSGSGTDFILTISNVQSEDLAEYFCQQYNSYPLTFGGGTKLEIKR", 50900),
]
